Molecular target: PD-1/PD-L1 interaction (PD-1-Ig / PD-L1-His) (Homo sapiens (Human), UniProt Q9NZQ7)
Sequence (Q9NZQ7 other isoform, or with tags, fused parts or gaps): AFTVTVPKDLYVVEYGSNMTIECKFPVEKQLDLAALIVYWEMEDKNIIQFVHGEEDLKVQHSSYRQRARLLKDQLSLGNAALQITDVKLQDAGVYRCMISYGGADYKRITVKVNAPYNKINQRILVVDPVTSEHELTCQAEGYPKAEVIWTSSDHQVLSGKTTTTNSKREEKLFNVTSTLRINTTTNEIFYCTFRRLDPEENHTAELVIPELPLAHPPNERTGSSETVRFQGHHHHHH
Experiment: PD-1/PD-L1 Homogenous Time-Resolved Fluorescence (HTRF) binding assay
Conditions: PD-1/PD-L1 HTRF binding assay; value given as range class; read-out: Range or IC50
IC50 reference

{"columns": ["COMPOUND", "IC50"],
 "data": [
  ["CC(=O)NCCNCc1ccc(OCc2cccc(-c3ccccc3)c2C)cc1OCc1ccccc1", "0.1 to 20 µM"]
]}

Task: Test system PD-1/PD-L1 interaction (PD-1-Ig / PD-L1-His) (Homo sapiens (Human), UniProt Q9NZQ7); read-out IC50; what value for `CC(=O)NCCNCc1ccc(OCc2cccc(-c3ccccc3)c2C)cc1OCc1cc(C)ccc1F` ?
Result: 0.1 to 20 µM

Task: Give PD-1/PD-L1 interaction (PD-1-Ig / PD-L1-His) (Homo sapiens (Human), UniProt Q9NZQ7) IC50 for `CSC[C@H](NCc1cc(Cl)c(OCc2cccc(-c3ccc4c(c3)OCCO4)c2C)cc1OCc1cccc(C#N)c1)C(=O)O`
Result: 0.01 to 0.1 µM

Task: Please tell me: IC50 of Cc1c(COc2cc(OCc3cccc(C#N)c3)c(CNC(Cc3c[nH]c4ccc(O)cc34)C(=O)O)cc2Cl)cccc1-c1ccc2c(c1)OCCO2 (stereo not drawn) , system PD-1/PD-L1 interaction (PD-1-Ig / PD-L1-His) (Homo sapiens (Human), UniProt Q9NZQ7)?
Result: 0.01 to 0.1 µM

Task: Lab note: need IC50 for `COC(=O)CCCCOc1cc(OCc2cccc(-c3ccccc3)c2C)ccc1CNCCNC(C)=O` on PD-1/PD-L1 interaction (PD-1-Ig / PD-L1-His) (Homo sapiens (Human), UniProt Q9NZQ7), anyone have it?
Result: 0.1 to 20 µM

Task: Request: IC50, test system PD-1/PD-L1 interaction (PD-1-Ig / PD-L1-His) (Homo sapiens (Human), UniProt Q9NZQ7), entry `Cc1cc(CN[C@](C)(CO)C(=O)O)c(OCc2cccc(C#N)c2)cc1OCc1cccc(-c2ccc3c(c2)OCCO3)c1C`
Result: 0.0006 to 0.01 µM

Task: Identify the measured IC50 of `CCOC(=O)c1cncc(COc2cc(OCc3cccc(-c4ccc5c(c4)OCCO5)c3C)c(Cl)cc2CN[C@@](C)(CO)C(=O)O)c1` for PD-1/PD-L1 interaction (PD-1-Ig / PD-L1-His) (Homo sapiens (Human), UniProt Q9NZQ7).
Result: 0.1 to 20 µM

Task: Report IC50 for `Cc1c(COc2ccc(CN[C@@H](C(=O)O)[C@@H](C)O)c(OCc3cccc(C#N)c3)c2)cccc1-c1ccc2c(c1)OCCO2` tested on PD-1/PD-L1 interaction (PD-1-Ig / PD-L1-His) (Homo sapiens (Human), UniProt Q9NZQ7).
Result: 0.0006 to 0.01 µM

Task: Checklist item: IC50 tested on PD-1/PD-L1 interaction (PD-1-Ig / PD-L1-His) (Homo sapiens (Human), UniProt Q9NZQ7), entry `CC(=O)NCCNCc1cc(C)c(OCc2cccc(-c3ccc4c(c3)OCCO4)c2C)cc1OCCCCC#N` , value?
Result: 0.01 to 0.1 µM

Task: Any idea what IC50 came out for `Cc1cc(CNC[C@@H](O)CC(=O)O)c(OCc2cccnc2)cc1OCc1cccc(-c2ccc3c(c2)OCCO3)c1C` on PD-1/PD-L1 interaction (PD-1-Ig / PD-L1-His) (Homo sapiens (Human), UniProt Q9NZQ7)?
Result: 0.0006 to 0.01 µM

Task: Request body: readout IC50, system PD-1/PD-L1 interaction (PD-1-Ig / PD-L1-His) (Homo sapiens (Human), UniProt Q9NZQ7), query `CC(=O)NCCNCc1ccc(OCc2cccc(-c3ccccc3)c2C)cc1OCc1cccc(F)c1` . Return the value.
Result: 0.1 to 20 µM

Task: Please state recorded IC50 (tested on PD-1/PD-L1 interaction (PD-1-Ig / PD-L1-His) (Homo sapiens (Human), UniProt Q9NZQ7)) of `CCOC(=O)Nc1cncc(COc2cc(OCc3cccc(-c4ccc5c(c4)OCCO5)c3C)c(Cl)cc2CN[C@@](C)(CO)C(=O)O)c1`
Result: 0.0006 to 0.01 µM

Task: // fetch PD-1/PD-L1 interaction (PD-1-Ig / PD-L1-His) (Homo sapiens (Human), UniProt Q9NZQ7) IC50 for COCC(NCc1cc(Cl)c(OCc2cccc(-c3ccc4c(c3)OCCO4)c2C)cc1OCc1cccc(C#N)c1)C(=O)O (stereo not drawn)
Result: 0.0006 to 0.01 µM

Task: Could you share what IC50 was measured for Cc1c(COc2cc(OCc3cccc(C#N)c3)c(CNCC(O)CN3CCOCC3)cc2Cl)cccc1-c1ccc2c(c1)OCCO2 (stereo not drawn) , tested on PD-1/PD-L1 interaction (PD-1-Ig / PD-L1-His) (Homo sapiens (Human), UniProt Q9NZQ7)?
Result: 0.0006 to 0.01 µM

Task: Fill in the recorded IC50 for this compound, with PD-1/PD-L1 interaction (PD-1-Ig / PD-L1-His) (Homo sapiens (Human), UniProt Q9NZQ7) as test system: Cc1c(COc2cc(OCc3cccc(C#N)c3)c(CN(C)C(C)C(=O)O)cc2Cl)cccc1-c1ccc2c(c1)OCCO2 (stereo not drawn)
Result: 0.0006 to 0.01 µM
